Test system: DLD1 NRF2-GOF
Test: drug sensitivity score (DSS) cytotoxicity (DSS score); higher = more toxic; extreme values may be limits of the assay
Details: 72 h; CellTox Green cytotoxicity
Reported drug sensitivity score is given for each of the following molecules.

[
  {
    "chem smiles": "C1=N/C2=N/c3ccc(OCCN4CCCC4)c(c3)COC/C=C/COCc3cccc(c3)C(=C1)N2",
    "tested system": "DLD1 NRF2-GOF",
    "drug sensitivity score": 8.6
  },
  {
    "chem smiles": "CNC(=O)c1ccc(C)c(-n2c(C)cc(OCc3ccc(F)cc3F)c(Br)c2=O)c1",
    "tested system": "DLD1 NRF2-GOF",
    "drug sensitivity score": 0
  },
  {
    "chem smiles": "COc1cc2/c(=N/c3ccc(Br)cc3F)nc[nH]c2cc1OCC1CCN(C)CC1",
    "tested system": "DLD1 NRF2-GOF",
    "drug sensitivity score": 0
  },
  {
    "chem smiles": "Nc1nc(N)c2nc(-c3cccc(O)c3)c(-c3cccc(O)c3)nc2n1",
    "tested system": "DLD1 NRF2-GOF",
    "drug sensitivity score": 0
  },
  {
    "chem smiles": "CN1CCN(C2CCN(C(=O)Nc3cc(Oc4ccc(NC(=O)C5(C(=O)Nc6ccc(F)cc6)CC5)c(F)c4)ccn3)CC2)CC1",
    "tested system": "DLD1 NRF2-GOF",
    "drug sensitivity score": 0
  },
  {
    "chem smiles": "NC(=O)N1CCC(CC(=O)N2CCC([C@H]3c4ncc(Br)cc4CCc4cc(Cl)cc(Br)c43)CC2)CC1",
    "tested system": "DLD1 NRF2-GOF",
    "drug sensitivity score": 6.7
  },
  {
    "chem smiles": "CCCc1cc(C)[nH]c(=O)c1CNC(=O)c1cc(-c2ccnc(N3CCN(C)CC3)c2)cc2c1cnn2C(C)C",
    "tested system": "DLD1 NRF2-GOF",
    "drug sensitivity score": 0
  },
  {
    "chem smiles": "Cc1cc(C)c(CNC(=O)c2cc(-c3ccc(CN4CCOCC4)cc3)cc3c2cnn3C2CCCC2)c(=O)[nH]1",
    "tested system": "DLD1 NRF2-GOF",
    "drug sensitivity score": 0
  }
]
